FYI, the data here is from PubChem BioAssay AID248.

Tested on: L1210 leukemia ip in BDF1 mice, survival T/C
Assay: NCI In Vivo Anticancer Drug Screen. Data for tumor model L1210 Leukemia (intraperitoneal) in B6D2F1 (BDF1) mice
Conditions: endpoint: mean survival time; dose: 100.0 mg/kg/injection; schedule: Q01DX001 (ip); vehicle: saline with Tween-80; higher = longer survival
Inconclusive results and toxic doses are left out.
Recorded T/C for the following compounds

O=C(O)C1C2CC(O)C(C2)C1C(=O)O (configuration not stated) : 94 % of control

[in] Entry Cc1[nH]c(=O)[nH]c(=O)c1N=Nc1ccccc1 , system L1210 leukemia ip in BDF1 mice, survival T/C: what T/C was measured?
[out] 95 % of control

[in] Entry NC(CC(O)C(=O)O)C(=O)O (configuration not stated) , system L1210 leukemia ip in BDF1 mice, survival T/C: what T/C was measured?
[out] 93 % of control

[in] Entry CCOCCC(=O)NCc1ccccc1 , system L1210 leukemia ip in BDF1 mice, survival T/C: what T/C was measured?
[out] 100 % of control

[in] Entry COc1ccc(COC(=O)c2cc([N+](=O)[O-])cc([N+](=O)[O-])c2)cc1 , system L1210 leukemia ip in BDF1 mice, survival T/C: what T/C was measured?
[out] 95 % of control

[in] Entry COc1ccc(C(C)(C)CC(=O)O)cc1OC , system L1210 leukemia ip in BDF1 mice, survival T/C: what T/C was measured?
[out] 92 % of control

[in] Entry F[Si](c1ccccc1)(c1ccccc1)c1cccc2ccccc12 , system L1210 leukemia ip in BDF1 mice, survival T/C: what T/C was measured?
[out] 96 % of control
